protocolDescription: Plasma concentration in rat at 10 mg/kg, po after 2 hrs
Assay type: ADME, organism-based
Parameters: dose 10 mg/kg, route oral
Provide the recorded concentration at 2 h for the entries that follow.
One number for each entry, in nM.

Examples from the recorded data:
1) O=C1NC2(CCN(C(=O)Nc3cnc(-c4ccccc4)cn3)CC2)c2ccccc21 : 360
2) O=C1OC2(CCN(C(=O)Nc3ncc(-c4ccccc4)cn3)CC2)c2ccccc21 : 3860
3) O=C1OC2(CCN(C(=O)Nc3cc(-c4ccc(Cl)cc4)no3)CC2)c2ccccc21 : 1420

Next item in the queue.
Query: Identify measured concentration at 2 h associated with "O=C1OC2(CCN(C(=O)Nc3cnc(-c4ccccc4)cn3)CC2)c2ccccc21"
Result: 2980
